The values you see were collected from patent US20150086555A1.

# TEST SYSTEM: recombinant soluble homotrimeric HA of A/Netherlands/219/03 (H7N7) (Influenza A virus A/Netherlands/219/03(H7N7))
# PROTOCOL DESCRIPTION: trimeric HA microarray, transfection supernatant set 2
# EXPERIMENTAL CONTEXT: remark: other sources report otherwise
MEASUREMENT NAME: Trimeric HA Binding: RLU
Express the reported value numerically, then name its unit.

Answered examples (2):
{"BINDER": "TCN-522 (3212_I12) (antibody, V domains shown) VH: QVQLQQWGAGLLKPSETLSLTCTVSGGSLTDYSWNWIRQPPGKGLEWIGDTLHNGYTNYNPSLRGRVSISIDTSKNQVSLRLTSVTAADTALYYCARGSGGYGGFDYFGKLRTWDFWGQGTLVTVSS VL: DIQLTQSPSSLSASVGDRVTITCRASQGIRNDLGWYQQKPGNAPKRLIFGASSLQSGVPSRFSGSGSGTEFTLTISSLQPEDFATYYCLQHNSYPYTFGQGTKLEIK", "OBSERVED RESULT": "2170 RLU"}
{"BINDER": "TCN-526 (5084_C17) (antibody, V domains shown) VH: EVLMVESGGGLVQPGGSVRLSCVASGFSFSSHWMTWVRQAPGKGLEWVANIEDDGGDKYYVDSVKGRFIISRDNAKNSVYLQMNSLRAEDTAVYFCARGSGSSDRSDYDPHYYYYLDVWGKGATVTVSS VL: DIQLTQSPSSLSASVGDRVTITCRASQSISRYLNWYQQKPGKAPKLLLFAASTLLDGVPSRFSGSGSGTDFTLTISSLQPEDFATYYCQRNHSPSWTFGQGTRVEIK", "OBSERVED RESULT": "5660 RLU"}

Please look at the following binder next.
Prompt: Please indicate Trimeric HA Binding: RLU recorded for TCN-504 (3251_K17) (antibody, V domains shown) VH: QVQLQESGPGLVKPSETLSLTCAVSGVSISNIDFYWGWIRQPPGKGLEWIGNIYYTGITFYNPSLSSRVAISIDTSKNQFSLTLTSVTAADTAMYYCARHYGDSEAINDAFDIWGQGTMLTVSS VL: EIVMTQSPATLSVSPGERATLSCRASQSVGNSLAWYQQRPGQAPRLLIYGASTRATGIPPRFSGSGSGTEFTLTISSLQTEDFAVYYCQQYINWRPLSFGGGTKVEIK
Response: 19300 RLU
